Provenance of the data: ChEMBL document CHEMBL1129871

Organism: Rattus norvegicus
Assay: The compound was tested in vitro for the growth hormone release in rat pituitary cell assays
Assay type: functional, Pituitary gland cell
Conditions: Rattus norvegicus, Pituitary gland cell
pEC50: −log10 of the molar value.
Kind request: treat 7 as inclusive, so pEC50 at 7 or higher is Y, anything lower is N.

Query: For this compound, is measured pEC50 7 or higher? CC(C)(N)CC(=O)N[C@@H]1CCc2ccccc2N(Cc2ccc(-c3cccnc3-c3nn[nH]n3)cc2)C1=O
Reply: N

Query: Exam item: decide whether the reported pEC50 for CC(C)(N)CC(=O)N[C@@H]1CCc2ccccc2N(Cc2ccc(-c3ccccc3-c3ncno3)cc2)C1=O is at least 7.
Reply: Y

Query: Record Cn1ncnc1-c1ccccc1-c1ccc(CN2C(=O)[C@H](NC(=O)CC(C)(C)N)CCc3ccccc32)cc1 ; criterion: pEC50 no lower than 7. Met?
Reply: N

Query: Is reported pEC50 greater than or equal to 7 here: CC(C)(N)CC(=O)N[C@@H]1CCc2ccccc2N(Cc2ccc(-n3cccc3-c3nn[nH]n3)cc2)C1=O
Reply: N

Query: Say whether CC(C)(N)CC(=O)N[C@@H]1CCc2ccccc2N(Cc2ccc(-c3ccccc3C(=O)O)cc2)C1=O shows pEC50 of 7 or more.
Reply: N
